B1: FAM107A (parent)
chain: LQRVLEHRRRNQLIKKKKEELEAK

- Variants of: B1
- test_summary: protein stability index of a GFP-peptide fusion (GPS, HEK-293T) (PSI 1-6); higher = more stable;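 further: lentivirally expressed fusions sorted by FACS into six bins by GFP to DsRed ratio, PSI derived from sequencing read proportions per bin multiplied by bin number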
- details: c terminus: a fixed tail appended
Task for the reader: assign each of the following variants its reported protein stability index.
Answer with a bare number; do not write a unit.

So, R10W ? Its protein stability index was 3.94

So, H7L ? Its protein stability index was 3.34

So, E20Q ? Its protein stability index was 2.12

So, L21Q ? Its protein stability index was 3.48

So, E19Y ? Its protein stability index was 3.23

So, V4S ? Its protein stability index was 3.69

So, R3Y ? Its protein stability index was 3.39

So, R9K ? Its protein stability index was 3.76

So, V4T ? Its protein stability index was 3.92

So, Q2Y ? Its protein stability index was 2.13

So, A23T ? Its protein stability index was 3.11

So, E19C ? Its protein stability index was 2.46

So, K18Y ? Its protein stability index was 3.11

So, E22C ? Its protein stability index was 2.54

So, L21C ? Its protein stability index was 3.3

So, L21I ? Its protein stability index was 2.78

So, K24F ? Its protein stability index was 3.75

So, N11H ? Its protein stability index was 3.23

So, K16I ? Its protein stability index was 3.28

So, N11A ? Its protein stability index was 2.24

So, N11I ? Its protein stability index was 2.97

So, K15Q ? Its protein stability index was 3.7

So, L13D ? Its protein stability index was 3.29

So, K18S ? Its protein stability index was 3.62

So, L5R ? Its protein stability index was 4.04

So, K24C ? Its protein stability index was 4.22

So, Q12S ? Its protein stability index was 3.11

So, E6I ? Its protein stability index was 2.73

So, E20H ? Its protein stability index was 2.83

So, A23R ? Its protein stability index was 3.48

So, L21D ? Its protein stability index was 4.01

So, L13T ? Its protein stability index was 3.32

So, E19I ? Its protein stability index was 3.12

So, R10L ? Its protein stability index was 3.66

So, L13H ? Its protein stability index was 4.18

So, H7K ? Its protein stability index was 1.82

So, K24R ? Its protein stability index was 2.61

So, Q2K ? Its protein stability index was 4.01

So, H7A ? Its protein stability index was 3.67

So, L5M ? Its protein stability index was 4.19

So, I14H ? Its protein stability index was 3.44

So, E22Y ? Its protein stability index was 3.26

So, R3N ? Its protein stability index was 3.79

So, K15N ? Its protein stability index was 4

So, H7D ? Its protein stability index was 4.04

So, Q2I ? Its protein stability index was 1.8

So, N11Q ? Its protein stability index was 3.09

So, K16W ? Its protein stability index was 3.58

So, V4N ? Its protein stability index was 4.87

So, N11D ? Its protein stability index was 3.56

So, K15T ? Its protein stability index was 3.87

So, K18T ? Its protein stability index was 3.93

So, N11S ? Its protein stability index was 3.6

So, L13A ? Its protein stability index was 3.51

So, R10E ? Its protein stability index was 3.75

So, L5C ? Its protein stability index was 3.69

So, L5T ? Its protein stability index was 4.38

So, H7E ? Its protein stability index was 3.9

So, K17I ? Its protein stability index was 2.58

So, L13C ? Its protein stability index was 3.3

So, E6V ? Its protein stability index was 3.68

So, Q12R ? Its protein stability index was 4.07

So, Q2T ? Its protein stability index was 4.02

So, I14C ? Its protein stability index was 3.42

So, E6S ? Its protein stability index was 4.13

So, Q2V ? Its protein stability index was 2.41

So, V4M ? Its protein stability index was 3.1

So, R8Q ? Its protein stability index was 3.38

Just for reference, the supplement of paper PMC10567573 is where these values come from.
